# Test system: CRL-1620 (CRL)
# test: CCK8 anticancer activity / cytotoxicity test, CRL
# Assay type: cell-based
pIC50: −log10 of the molar value.

compound_string | pIC50
COc1ccc(-c2ccc3ccc4ccc(-c5ccc(OC)cc5)nc4c3n2)cc1.Cc1cc2ccc1OCCOCCOCCOCCOCCOc1ccc(cc1C)-c1ccc3ccc4ccc-2nc4c3n1.F[P-](F)(F)(F)(F)F.[Cu+] | 6.50

----------
# Test system: MDA-MB-231BR (231BR)
# test: CCK8 anticancer activity / cytotoxicity test, 231BR
# Format: cell-based
# test_conditions: 231BR, 48 h, 10 times serial dilution; read-out: Approximate IC50, primary screening
# Description: The IC50 was calculated by SPSS statistics (IBM). […] All cytotoxicity tests were performed in six biological replicates. The anticancer activity against 231BR is of highest interest. […] Figure 3 depicts the anticancer activities of these compounds.
pIC50: −log10 of the molar value.

compound_string | censoring_qualifier | pIC50
COc1ccc(-c2ccc3ccc4ccc(-c5ccc(OC)cc5)nc4c3n2)cc1.Cc1cc2ccc1OCCOCCOCCOCCOCCOc1ccc(cc1C)-c1ccc3ccc4ccc-2nc4c3n1.F[P-](F)(F)(F)(F)F.[Cu+] | > | 5.00
CCC1=NC(=Cc2[nH]c(-c3cccc4cc[nH]c34)cc2OC)C=C1.CCC1=NC(=Cc2[nH]c(-c3cccc4cc[nH]c34)cc2OC)C=C1.F[P-](F)(F)(F)(F)F.[Cu+] | = | 4.50
CCC1=N/C(=C\c2[nH]c(-c3cccn3C(=O)OC(C)(C)C)cc2OC)C=C1 | = | 7.12
CCC1=N/C(=C\c2[nH]c(-c3ncc[nH]3)cc2OC)C=C1 | = | 3.55
CCC1=NC(=Cc2[nH]c(-c3cn[nH]c3)cc2OC)C=C1.CCC1=NC(=Cc2[nH]c(-c3cn[nH]c3)cc2OC)C=C1.F[P-](F)(F)(F)(F)F.[Cu+] | = | 4.31
